The reported numbers originate from patent US20230116972A1.

Molecular target: mouse CD38 (Mus musculus, UniProt P56528)
Sequence (P56528 whole entry): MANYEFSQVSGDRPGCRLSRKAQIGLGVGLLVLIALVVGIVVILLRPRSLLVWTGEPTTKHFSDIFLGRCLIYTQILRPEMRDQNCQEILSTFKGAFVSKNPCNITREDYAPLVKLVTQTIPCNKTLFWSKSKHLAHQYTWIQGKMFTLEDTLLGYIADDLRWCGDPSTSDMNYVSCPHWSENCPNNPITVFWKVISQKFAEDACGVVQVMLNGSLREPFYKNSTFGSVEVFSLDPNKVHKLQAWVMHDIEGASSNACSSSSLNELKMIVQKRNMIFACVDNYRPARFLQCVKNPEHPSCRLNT
Assay: mouse recombinant CD38 enzyme assay (hydrolysis of NAD+)
Settings: read-out: mCD38 BioChem IC50
pIC50: −log10 of the molar value.
observedProperty: pIC50

These recorded examples may help you get a feel for the data.
In [3]: df
Out[3]:
                                  structure  observedproperty  measuredvalue
0  O=C(N[C@H]1CC[C@H](C(F)F)CC1)c1ccnc(-n2ccnc2)n1             pIC50           8.22
1       Cc1cc(C(=O)Nc2cccnc2)nc(-c2cncs2)c1             pIC50           7.17
2       Cc1cc(NC(=O)c2cccc(-n3ccnc3)n2)ccn1             pIC50           8.52
3  O=C(N[C@H]1CC[C@H](CO)CC1)c1nccc(-n2ccnc2)n1             pIC50           7.41
4  O=C(NC1CCC(F)(F)CC1)c1cc(C2CCOCC2)nc(-n2ccnc2)n1             pIC50           7.20
5  CO[C@H]1CC[C@H](NC(=O)c2cc(C(C)C)nc(-n3ccnc3)n2)CC1             pIC50           7.34

[1] COCCO[C@H]1CC[C@H](NC(=O)c2nccc(-c3cncn3C)n2)C1
[2] Cc1cc(NC(=O)c2cccc(-c3cncs3)n2)ccn1
[3] COc1ccc(NC(=O)c2cccc(-n3ccnc3)n2)cn1
Parameters: sort_field (pIC50), sort_dir (desc). Respond with an ordered listing of the labels, as requested.
3, 1, 2
